test system: 621-102 (TSC2-deficient); experiment: relative viability vs DMSO; higher = less cytotoxic; conditions: 10 µM; serum: 10% FBS; 72 h
Where a name gives a salt, the structure may show the parent alone.
Below is a list of entries, each paired with its recorded relative viability value.
ATTRIBUTE MEASURED: relative viability

* Cc1nc(=O)c2cc(CN(C)c3ccc(C(=O)N[C@@H](CCC(=O)O)C(=O)O)s3)ccc2[nH]1 | 80.3%
* CC[C@]1(O)C[C@H]2CN(CCc3c([nH]c4ccccc34)[C@@](C(=O)OC)(c3cc4c(cc3OC)N(C=O)[C@H]3[C@@](O)(C(=O)OC)[C@H](OC(C)=O)[C@]5(CC)C=CCN6CC[C@]43[C@@H]65)C2)C1 [Vincristine Sulfate] | 33.5%
* CN1CCC(CNc2ccc3ncc(-c4cccc(OC(F)(F)F)c4)n3n2)CC1 | 0.96%
* Cc1csc(-c2nnc(Nc3ccc(Oc4ncccc4-c4ccnc(N)n4)cc3)c3ccccc23)c1 | 76%
* O=C1NC(=O)/C(=C/c2ccc(-c3ccc(F)cc3O)o2)S1 | 90.8%
* COc1cc2c(Oc3ccc(NC(=O)C4(C(=O)Nc5ccc(F)cc5)CC4)cc3F)ccnc2cc1OCCCN1CCOCC1 | 2.81%
* Nc1ccn([C@@H]2O[C@H](CO)[C@@H](O)[C@@H]2O)c(=O)n1 | 49.4%
* Cc1ccc(Nc2nccc(N(C)c3ccc4c(C)n(C)nc4c3)n2)cc1S(N)(=O)=O [Pazopanib Hydrochloride] | 82.2%
* O=C(c1ccc(/C=C/c2n[nH]c3ccccc23)cc1)N1CCNCC1 | 37.6%
* NC(CO)C(=O)NNCc1ccc(O)c(O)c1O (stereo not given) [Benserazide HCl] | 101%

* * *

tested on: 621-102 (TSC2-deficient); assay: relative viability vs DMSO; higher = less cytotoxic; settings: 0.0001 µM; serum: 10% FBS; 72 h;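 note: immortalized renal angiomyolipoma cells stably carrying empty vector or TSC2, dosed in 384-well plates in DMEM, viability normalized to vehicle-treated wells within each plate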
Where a name gives a salt, the structure may show the parent alone.
Below is a list of entries, each paired with its recorded relative viability value.
ATTRIBUTE MEASURED: relative viability (%)

• COc1nc(C)cnc1NS(=O)(=O)c1cccnc1-c1ccc(-c2nnco2)cc1 [Zibotentan (ZD4054)] = 118
• CCc1nc(N)nc(N)c1-c1ccc(Cl)cc1 [Pyrimethamine] = 99.7
• N#CC1(c2ccc(NC(=O)c3cccnc3NCc3ccncc3)cc2)CCCC1 [Apatinib] = 101
• CC(C)(Cc1ccc2ccccc2c1)NC[C@@H](O)COc1cccc(Cl)c1C#N [NPS-2143] = 83.2
• Cn1cc(CNCC2CCN(c3ncc(C(=O)NO)cn3)CC2)c2ccccc21 = 95.9
• COC[C@@H](c1ccc(C(F)(F)F)cc1)N1CCN(C2(C)CCN(C(=O)c3c(C)ncnc3C)CC2)C[C@@H]1C [Vicriviroc Malate] = 100
• CCc1cccc(CC)c1NC(=O)N1Cc2[nH]nc(NC(=O)c3ccc(N4CCN(C)CC4)cc3)c2C1 = 100
• COc1cc2c(cc1OC)C(=O)C(CC1CCN(Cc3ccccc3)CC1)C2 (stereo not drawn) [Donepezil HCl] = 96.2
• CCOc1ccccc1OCCN[C@H](C)Cc1ccc(OC)c(S(N)(=O)=O)c1 [Tamsulosin HCl] = 104
• CCO[C@@H]1OC(=O)C[C@@H]1NC(=O)[C@@H]1CCCN1C(=O)[C@@H](NC(=O)c1ccc(N)c(Cl)c1)C(C)(C)C [VX-765] = 109
• Nc1cccc2c1CN(C1CCC(=O)NC1=O)C2=O (stereo not drawn) [Lenalidomide] = 107
• Cc1[nH]c(/C=C2\C(=O)Nc3ccc(S(=O)(=O)N(C)c4cccc(Cl)c4)cc32)c(C)c1C(=O)N1CCN(C)CC1 = 98.4
• Oc1ccc(-c2nc(-c3ccc(F)cc3)c(-c3ccncc3)[nH]2)cc1 = 104
• NC1=N[C@@]2(c3cc(NC(=O)c4ccc(F)cn4)ccc3F)COC[C@H]2CS1 = 105
• CN(C)Cc1cccc(N/C(=C2\C(=O)Nc3cc(C(N)=O)ccc32)c2ccccc2)c1 = 103
• Cc1ccc(C(=O)Nc2cccc(C(F)(F)F)c2)cc1Nc1nc(-c2cccnc2)nc2c1cnn2C [NVP-BHG712] = 108
• OCCn1cc(-c2cnc3nnn(Cc4ccc5ncccc5c4)c3n2)cn1 = 103
• CC(C)C[C@H](NC(=O)CNC(=O)c1cc(Cl)ccc1Cl)B(O)O [MLN2238] = 114
• Cn1cnc2c(F)c(Nc3ccc(Br)cc3Cl)c(C(=O)NOCCO)cc21 [AZD6244 (Selumetinib)] = 84
• O=C1Nc2ccccc2/C1=C1/Nc2ccccc2C1=O [Indirubin] = 97.2
• Cc1nc(-c2ccc(OCC(C)C)c(C#N)c2)sc1C(=O)O [Febuxostat] = 104
• O=C(Nc1cccnc1)N1CCC(Cc2cccc(Oc3ccc(C(F)(F)F)cn3)c2)CC1 [PF-3845] = 104
• NC1(c2ccc(-c3nc4ccn5c(=O)[nH]nc5c4cc3-c3ccccc3)cc2)CCC1 [MK-2206] = 102
• Cc1ccc(C(=O)N(CCCN)[C@@H](c2nc3cc(Cl)ccc3c(=O)n2Cc2ccccc2)C(C)C)cc1 [Ispinesibmesilate] = 95.1
• Cc1cn(-c2cc(NC(=O)c3ccc(C)c(Nc4nccc(-c5cccnc5)n4)c3)cc(C(F)(F)F)c2)cn1 [Nilotinib] = 70
• CN1[C@@H]2C[C@@H](OC(=O)[C@H](CO)c3ccccc3)C[C@H]1[C@@H]1O[C@@H]12 [Scopolamine hydrobromide] = 127
• Cc1[nH]nc2ccc(-c3cncc(OC[C@@H](N)Cc4ccccc4)c3)cc12 = 114
• O=C1NC(=O)/C(=C/c2ccc3c(c2)OC(F)(F)O3)S1 = 104
